- Test system: MDA-MB-468
- Test name: phospho-S6 immunofluorescence (DAPI-normalised), per-plate z-score; higher = higher phospho-S6 signal (less pathway suppression)
- Run conditions: co-treatment: lapatinib 1 uM; 24 h
Counter-ions that a name gives are not always drawn.
Measurement name: phospho-S6 immunofluorescence (z-score)
Hey, just send me the number, nothing else.

Inquiry: Entry CNC(=O)[C@H]1O[C@@H](n2cnc3c(NCc4cccc(I)c4)nc(Cl)nc32)[C@H](O)[C@@H]1O (compound 10 µM) has what phospho-S6 immunofluorescence (z-score)?
Reply text: -1.18

Inquiry: Dear colleague, I am looking for the recorded phospho-S6 immunofluorescence (z-score) of the following molecule: CCCN(CCC)CCc1cccc2c1CC(=O)N2 [Ropinirole (hydrochloride)] (compound 10 µM)
Reply text: 1.04

Inquiry: Entry CN(C)CCC(c1ccc(Br)cc1)c1ccccn1 (stereo not given) [Brompheniramine (maleate)] (compound 10 µM) has what phospho-S6 immunofluorescence (z-score)?
Reply text: -0.17

Inquiry: Field request: phospho-S6 immunofluorescence (z-score) | item: OCCOCCN1CCN(C(c2ccccc2)c2ccc(Cl)cc2)CC1 (stereo not given) [Hydroxyzine (dihydrochloride)] (compound 10 µM)
Reply text: -0.69

Inquiry: Suppose we examine the molecule CC(C)(C)C(=O)C(=Nc1ccc(Cl)cc1)NNc1ccc(Cl)cc1 (compound 10 µM) ; what phospho-S6 immunofluorescence (z-score) value has been reported?
Reply text: -6.25

----------
- System: MDA-MB-468
- Test name: phospho-S6 immunofluorescence (DAPI-normalised), per-plate z-score; higher = higher phospho-S6 signal (less pathway suppression)
- Run conditions: co-treatment: GDC0941 450 nM; 24 h
Where a name gives a salt, the structure may show the parent alone.
Measurement name: phospho-S6 immunofluorescence (z-score)

Inquiry: Short answer please: phospho-S6 immunofluorescence (z-score), MDA-MB-468, entry COc1cc(C(=O)N(CCCc2ccccc2)Cc2ccc(CC(=O)O)cc2)cc(OC)c1C (compound 10 µM)
Reply text: -0.21

Inquiry: Given the entry COc1cc(/C=C/C(=O)O)ccc1O [Ferulic acid (sodium)] (compound 10 µM) , what phospho-S6 immunofluorescence (z-score) was observed with MDA-MB-468?
Reply text: 0.56

Inquiry: Missing value: phospho-S6 immunofluorescence (z-score), MDA-MB-468, entry COc1ccc2[nH]cc(CCNC(C)=O)c2c1 [Melatonin] (compound 10 µM) . Fill in?
Reply text: -1.25

Inquiry: Fill in the recorded phospho-S6 immunofluorescence (z-score) for this compound, with MDA-MB-468 as test system: Clc1ccc2c(c1)CCc1cccnc1C2=C1CCNCC1 [Desloratadine] (compound 10 µM)
Reply text: -0.48

Inquiry: I'm curious: which phospho-S6 immunofluorescence (z-score) was measured for CCN(CC)CC#CCOC(=O)C(O)(c1ccccc1)C1CCCCC1 (configuration not stated) [Oxybutynin (chloride)] (compound 10 µM) tested on MDA-MB-468?
Reply text: 1.35

Inquiry: Any idea what phospho-S6 immunofluorescence (z-score) came out for Cc1nc2c([nH]1)-c1ccccc1N(C(=O)c1ccc(NC(=O)c3ccccc3-c3ccccc3)cc1)CC2 [Conivaptan (hydrochloride)] (compound 10 µM) on MDA-MB-468?
Reply text: 0.65

Inquiry: Record lookup: for MDA-MB-468, what phospho-S6 immunofluorescence (z-score) belongs to O=C(Nc1cc(Cl)cc(Cl)c1)[C@H]1CCCC[C@H]1C(=O)O (compound 10 µM) ?
Reply text: 0.83

Inquiry: Query the reported phospho-S6 immunofluorescence (z-score) for MDA-MB-468; item: CCc1cc(/C(C)=N/OCc2ccc(C3CCCCC3)c(C(F)(F)F)c2)ccc1CN1CC(C(=O)O)C1 [Siponimod] (compound 10 µM)
Reply text: -0.49

Inquiry: Recorded phospho-S6 immunofluorescence (z-score) for O=C(c1ccc(F)cc1)N1CCC[C@H](c2nc(-c3ccc(F)cc3)no2)C1 (compound 10 µM) with MDA-MB-468, please?
Reply text: -2.64

Inquiry: What phospho-S6 immunofluorescence (z-score) appears in the records for this compound with MDA-MB-468? Cc1cc2c(s1)Nc1ccccc1N=C2N1CCN(C)CC1 [Olanzapine] (compound 10 µM)
Reply text: 0.77

Inquiry: Give MDA-MB-468 phospho-S6 immunofluorescence (z-score) for O=C(NC(Cc1cc(=O)[nH]c2ccccc12)C(=O)O)c1ccc(Cl)cc1 (configuration not stated) [Rebamipide] (compound 10 µM)
Reply text: 0.69

Inquiry: I'm curious: which phospho-S6 immunofluorescence (z-score) was measured for Cc1noc(-c2ccc(-c3ccc(CC(=O)O)cc3)cc2)c1NC(=O)O[C@H](C)c1ccccc1 (compound 10 µM) tested on MDA-MB-468?
Reply text: 0.62

Inquiry: Notebook entry, MDA-MB-468 assay: phospho-S6 immunofluorescence (z-score) of CCc1c(C)[nH]c2c1C(=O)C(CN1CCOCC1)CC2 (configuration not stated) [Molindone (hydrochloride)] (compound 10 µM) = ?
Reply text: -0.5

Inquiry: API: value(readout=phospho-S6 immunofluorescence (z-score), system=MDA-MB-468) for record C[C@](N)(Cc1ccc(O)c(O)c1)C(=O)O (compound 10 µM)
Reply text: -0.58

Inquiry: Request body: readout phospho-S6 immunofluorescence (z-score), system MDA-MB-468, query Cc1cncc(CN2CCC(=C3c4ccc(Cl)cc4CCc4cccnc43)CC2)c1 [Rupatadine (Fumarate)] (compound 10 µM) . Return the value.
Reply text: -1.47

Inquiry: Return phospho-S6 immunofluorescence (z-score) measured with MDA-MB-468 given this compound: C#CCOc1ccc2c(c1)c(-c1ccc(C(C)C)cc1)nc(=O)n2C(C)C [Calcium-Sensing Receptor Antagonists I] (compound 10 µM)
Reply text: -3.51

Inquiry: Give recorded phospho-S6 immunofluorescence (z-score) with MDA-MB-468 for the following compound: c1ccc(NCc2ccc(CNc3ccccn3)cc2)nc1 (compound 10 µM)
Reply text: 0.88
